For each of the compounds below, state its HDAC2 activity raw data (signal).
Biological target: HDAC2 (Homo sapiens, UniProt Q92769)
Construct: purchased Reaction Biology Corporation (assay run by the CRO)
Sequence (Q92769 whole entry): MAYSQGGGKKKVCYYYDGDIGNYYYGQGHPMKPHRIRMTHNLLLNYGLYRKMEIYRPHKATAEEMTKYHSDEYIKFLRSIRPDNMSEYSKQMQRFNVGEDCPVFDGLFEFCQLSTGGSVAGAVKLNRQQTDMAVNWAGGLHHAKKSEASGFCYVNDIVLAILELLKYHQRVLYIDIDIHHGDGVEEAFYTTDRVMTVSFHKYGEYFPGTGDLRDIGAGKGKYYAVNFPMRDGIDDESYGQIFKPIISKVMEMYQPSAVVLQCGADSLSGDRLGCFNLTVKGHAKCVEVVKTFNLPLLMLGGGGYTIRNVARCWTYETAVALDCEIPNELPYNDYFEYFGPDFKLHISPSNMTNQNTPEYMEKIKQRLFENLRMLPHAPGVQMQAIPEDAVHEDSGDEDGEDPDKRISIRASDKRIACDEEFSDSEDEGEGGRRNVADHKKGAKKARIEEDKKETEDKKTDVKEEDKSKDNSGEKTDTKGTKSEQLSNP
Experiment: HDAC2 inhibition, full IC50 measurement (Reaction Biology; fluorogenic p53 peptide RHKK(Ac)AMC)
Format: biochemical
Details: Conc. 3.33E-06 M, t1
Peptide text beside a SMILES is read from it.

Known results for compounds:
compound: CC(C)[C@@H]1NC(=O)[C@H](CCCNC(=N)N)NC(=O)[C@@H](CC(=O)O)NC(=O)[C@H](CO)NC(=O)[C@@H](CO)NC(=O)[C@@H](CCC(=O)O)NC(=O)[C@H](Cc2ccc(O)cc2)NC(=O)[C@H](CCCCCS)NC1=O [des4.2.0, SHA-Tyr-dGlu-dSer-Ser-dAsp-Arg-Val] (HELM PEPTIDE1{R.V.[O=C([C@H](CCCCCS)N[*:1])[*:2]].Y.[dE].[dS].S.[dD]}$PEPTIDE1,PEPTIDE1,1:R1-8:R2$$$V2.0)
testedSystem: HDAC2 (Homo sapiens, UniProt Q92769)
HDAC2 activity raw data (signal): 208395
--
compound: C[C@H](O)[C@H]1NC(=O)[C@H](Cc2c[nH]c3ccccc23)NC(=O)[C@H](CCCCCS)NC(=O)[C@H](CCCCN)NC(=O)[C@@H](CC(=O)O)NC(=O)[C@@H](CCCCN)NC(=O)[C@@H](CO)NC(=O)[C@H](CC(N)=O)NC(=O)[C@H](CC(=O)O)NC1=O [des2.1.0, SHA-Trp-dThr-Asp-Asn-dSer-dLys-dAsp-Lys] (HELM PEPTIDE1{D.N.[dS].[dK].[dD].K.[O=C([C@H](CCCCCS)N[*:1])[*:2]].W.[dT]}$PEPTIDE1,PEPTIDE1,1:R1-9:R2$$$V2.0)
testedSystem: HDAC2 (Homo sapiens, UniProt Q92769)
HDAC2 activity raw data (signal): 26370

Batch request: HDAC2 activity raw data (signal) per item, same order as input.
1. CCCC[C@H]1NC(=O)[C@H](Cc2ccccc2)NC(=O)[C@H](CCCCCS)NC(=O)[C@@H](CCCNC(=N)N)NC(=O)[C@H](C)NC(=O)[C@@H](CO)NC(=O)[C@@H](C)NC(=O)[C@H](CCCCN)NC1=O [des4.3.1.3, SHA-Phe-dNle-Lys-dAla-dSer-Ala-dArg] (HELM PEPTIDE1{A.[dR].[O=C([C@H](CCCCCS)N[*:1])[*:2]].F.[CCCC[C@@H](N[*:1])C(=O)[*:2]].K.[dA].[dS]}$PEPTIDE1,PEPTIDE1,1:R1-8:R2$$$V2.0)
2. CCCC[C@H]1NC(=O)[C@H](Cc2ccccc2)NC(=O)[C@H](CCCCCS)NC(=O)[C@@H](CO)NC(=O)[C@H](CC(=O)O)NC(=O)[C@@H](CO)NC(=O)[C@@H](C)NC(=O)[C@H](CCCCN)NC1=O [des4.3.1.1, SHA-Phe-dNle-Lys-dAla-dSer-Asp-dSer] (HELM PEPTIDE1{D.[dS].[O=C([C@H](CCCCCS)N[*:1])[*:2]].F.[CCCC[C@@H](N[*:1])C(=O)[*:2]].K.[dA].[dS]}$PEPTIDE1,PEPTIDE1,1:R1-8:R2$$$V2.0)
3. NCCCC[C@@H]1NC(=O)[C@@H]2CCCN2C(=O)[C@H](CC(N)=O)NC(=O)[C@H](CCCCCS)NC(=O)CNC(=O)[C@H](Cc2c[nH]c3ccccc23)NC(=O)[C@@H](CCCCN)NC(=O)[C@H](CCC(N)=O)NC1=O [des1.1.0, SHA-Asn-Pro-Lys-Gln-dLys-Trp-Gly] (HELM PEPTIDE1{G.[O=C([C@H](CCCCCS)N[*:1])[*:2]].N.P.K.Q.[dK].W}$PEPTIDE1,PEPTIDE1,1:R1-8:R2$$$V2.0)

Found:
507679
1631295
102737
